test system: TK-10 renal; assay: NCI-60 one-dose screen, 48 h (100 = growth as untreated, 0 = no growth, -100 = all killed); conditions: 10 µM unless noted
Compounds without any hit were thinned out: in the full panel of roughly 83,000, 20% have a hit. The source made the active and inactive calls. How the source made its calls: active means growth percent below 10; inactive means the rest.
Parameter growth: see the listing below.

What measured growth goes with O=C(c1ccccc1)c1c(/C=C/c2ccccc2)nc2ccccc2c1/C=C/c1ccc(Br)cc1 ? 107% (inactive)

Recorded growth for COCN1CCC2N(COC)CCC3N(COC)CCC1N23 (stereo not given) , please? 113% (inactive)

Item c1cc2ccc3cc2cc1CNCCOCCNCc1ccc2ccc(cc2c1)CNCCOCCNC3 has what recorded growth? 8.5% (active)

New cases:
growth for OC(c1cccc(-n2ccc(C(F)(F)F)n2)c1)c1cnccc1NC1CCCCCC1 (stereo not given) ? 86.7% (inactive)

Given the entry O=C(c1ccc(Nc2nccc(NCCCCNc3ccnc4cc(Cl)ccc34)n2)cc1)N1CCCCC1 , report its measured growth. 91.5% (inactive)

// query growth value for entry COc1cc(C2NC(=O)c3ccccc3N2)ccc1OCCCCCOc1c(OC)cc(C2=NOC(c3cc(OC)c(OC)c(OC)c3)C2)cc1OC (stereo not given) 100% (inactive)
